# measuredOn: HCV NS3/4A protease genotype 1b (Hepatitis C virus genotype 1b, UniProt P26663)
# Sequence (P26663 1027-1657): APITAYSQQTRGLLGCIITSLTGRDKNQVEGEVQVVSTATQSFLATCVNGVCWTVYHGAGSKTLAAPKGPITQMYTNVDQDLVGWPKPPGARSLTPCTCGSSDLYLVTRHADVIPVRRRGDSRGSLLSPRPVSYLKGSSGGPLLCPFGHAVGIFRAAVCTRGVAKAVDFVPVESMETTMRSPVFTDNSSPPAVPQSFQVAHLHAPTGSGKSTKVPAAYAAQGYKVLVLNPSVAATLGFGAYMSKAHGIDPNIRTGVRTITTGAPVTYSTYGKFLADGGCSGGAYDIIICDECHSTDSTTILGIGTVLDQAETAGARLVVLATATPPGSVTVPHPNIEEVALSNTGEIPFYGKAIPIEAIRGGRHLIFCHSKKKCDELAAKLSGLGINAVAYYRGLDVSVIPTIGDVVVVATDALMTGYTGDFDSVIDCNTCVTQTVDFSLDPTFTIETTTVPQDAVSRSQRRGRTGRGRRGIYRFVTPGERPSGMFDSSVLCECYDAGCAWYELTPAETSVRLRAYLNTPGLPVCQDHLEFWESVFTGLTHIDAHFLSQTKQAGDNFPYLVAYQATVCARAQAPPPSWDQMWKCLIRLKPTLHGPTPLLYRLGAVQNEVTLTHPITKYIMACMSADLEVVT
# Sequence (P26663 1658-1711): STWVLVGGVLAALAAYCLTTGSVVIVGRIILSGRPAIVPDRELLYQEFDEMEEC
# assayProtocol: HCV NS3/4A protease time-resolved fluorescence (TRF) assay, Ki against genotype 1b
# Format: biochemical
# settings: IC50 [gt-1b] (nM), NS3/4A genotype 1b, enzyme 0.2 nM; K+ salt
Sorting guide: entries reporting IC50 beneath 0.02 nM go in the Condition met pile, the rest go in the Condition not met pile.

molecule: COc1ccc2nc(C(F)(F)F)c3c(c2c1)CC[C@]1(C[C@H]2C(=O)N[C@]4(C(=O)NS(=O)(=O)C5(C)CC5)C[C@H]4/C=C\CCCCC[C@H](NC(=O)OC(C)(C)C(F)(F)F)C(=O)N2C1)O3
className: Condition not met
//
molecule: Cc1nc2cc(F)c(F)cc2c2c1O[C@]1(CC2)C[C@H]2C(=O)N[C@]3(C(=O)NS(=O)(=O)C4(C)CC4)C[C@H]3/C=C\CCCCC[C@H](NC(=O)OC(C)C)C(=O)N2C1
className: Condition met
//
molecule: CC(C)COC(=O)N[C@H]1CCCCC/C=C\[C@@H]2C[C@@]2(C(=O)NS(=O)(=O)C2(C)CC2)NC(=O)[C@@H]2C[C@]3(CCc4c(c(C5CC5)nc5c(F)cccc45)O3)CN2C1=O
className: Condition met
//
molecule: Cc1nc2cc(F)c(F)cc2c2c1O[C@]1(CC2)C[C@H]2C(=O)N[C@]3(C(=O)NS(=O)(=O)C4(C)CC4)C[C@H]3/C=C\CCCCC[C@H](NC(=O)OC3(C)CC3)C(=O)N2C1
className: Condition met
//
molecule: COc1ccc2nc(C)c3c(c2c1)C(F)(F)C[C@]1(C[C@H]2C(=O)N[C@]4(C(=O)NS(=O)(=O)C5(C)CC5)C[C@H]4/C=C\CCCCC[C@H](NC(=O)OC(C)(C)C)C(=O)N2C1)O3
className: Condition met
//
molecule: Cc1nc2ccc(Cl)cc2c2c1O[C@]1(CC2)C[C@H]2C(=O)N[C@]3(C(=O)NS(=O)(=O)C4(C)CC4)C[C@H]3/C=C\CCCCC[C@H](NC(=O)OCC3CC3)C(=O)N2C1
className: Condition met
//
molecule: COc1ccc2nc(C3CC3)c3c(c2c1)C(F)(F)C[C@]1(C[C@H]2C(=O)N[C@]4(C(=O)NS(=O)(=O)C5(C)CC5)C[C@H]4/C=C\CCCCC[C@H](NC(=O)OCC(C)C)C(=O)N2C1)O3
className: Condition not met
//
molecule: COc1ccc2c3c(c(C4CC4)nc2c1)O[C@]1(CC3)CC2C(=O)NC3(C(=O)NS(=O)(=O)C4(C)CC4)CC3/C=C\CCCCC[C@H](NC(=O)OC(C)(C)C)C(=O)N2C1 (stereo partly drawn)
className: Condition not met
//
molecule: COc1ccc2nc(C)c3c(c2c1)CC[C@]1(C[C@H]2C(=O)N[C@]4(C(=O)NS(=O)(=O)C5(C)CC5)C[C@H]4/C=C\CCCCC[C@H](NC(=O)OCC4CCC4)C(=O)N2C1)O3
className: Condition met
//
molecule: COc1ccc2nc(C)c3c(c2c1)CC[C@]1(C[C@H]2C(=O)N[C@]4(C(=O)NS(=O)(=O)C5(C)CC5)C[C@H]4/C=C\CCCCC[C@H](NC(=O)OC(C)(C)C(F)(F)F)C(=O)N2C1)O3
className: Condition met
//
molecule: Cc1nc2ccc(Cl)cc2c2c1O[C@]1(CC2)C[C@H]2C(=O)N[C@]3(C(=O)NS(=O)(=O)C4(C)CC4)C[C@H]3/C=C\CCCCC[C@H](NC(=O)OCC3(C)CC3)C(=O)N2C1
className: Condition met
//
molecule: COc1ccc2c3c(c(C4CC4)nc2c1)O[C@]1(CC3)C[C@H]2C(=O)N[C@]3(C(=O)NS(=O)(=O)C4(C)CC4)C[C@H]3/C=C\CCCCC[C@H](NC(=O)OC3CCCC3)C(=O)N2C1
className: Condition met
//
molecule: Cc1nc2ccc(C(F)(F)F)cc2c2c1O[C@]1(CC2)C[C@H]2C(=O)N[C@]3(C(=O)NS(=O)(=O)C4(C)CC4)C[C@H]3/C=C\CCCCC[C@H](NC(=O)OC(C)(C)C(F)(F)F)C(=O)N2C1
className: Condition not met
//
molecule: Cc1nc2cc(F)ccc2c2c1O[C@]1(CC2)C[C@H]2C(=O)N[C@]3(C(=O)NS(=O)(=O)C4(C)CC4)C[C@H]3/C=C\CCCCC[C@H](NC(=O)OC(C)(C)C)C(=O)N2C1
className: Condition not met
//
molecule: Cc1nc2cc(F)c(F)cc2c2c1O[C@]1(CC2)C[C@H]2C(=O)N[C@]3(C(=O)NS(=O)(=O)C4(C)CC4)C[C@H]3/C=C\CCCCC[C@H](NC(=O)OCC(C)(C)C)C(=O)N2C1
className: Condition met
//
molecule: Cc1nc2ccc(OC(F)(F)F)cc2c2c1O[C@@]1(C[C@H]3C(=O)N[C@]4(C(=O)NS(=O)(=O)C5(C)CC5)C[C@H]4/C=C\CCCCC[C@H](NC(=O)OC4CCCC4)C(=O)N3C1)CC2(F)F
className: Condition not met

* * *

# Test system: HCV genotype 1b replicon
# assayProtocol: HCV replicon assay, genotype 1b replicon EC50
# Type: cell-based, Hepatitis C virus
# settings: Hepatitis C virus, HCV replicon, genotype 1b; read-out: EC50 [gt-1b]
pEC50: −log10 of the molar value.

structureString: CCc1nc2ccc(OC)cc2c2c1O[C@]1(CC2)C[C@H]2C(=O)N[C@]3(C(=O)NS(=O)(=O)C4(C)CC4)C[C@H]3/C=C\CCCCC[C@H](NC(=O)O[C@@H](C)C3CC3)C(=O)N2C1
pEC50: 7.82
//
structureString: COCC1(S(=O)(=O)NC(=O)[C@@]23C[C@H]2/C=C\CCCCC[C@H](NC(=O)OCC2(C)CC2)C(=O)N2C[C@@]4(CCc5c(c(C(F)(F)F)nc6ccc(OC)cc56)O4)C[C@H]2C(=O)N3)CC1
pEC50: 8.76
//
structureString: Cc1nc2ccccc2c2c1O[C@]1(CC2)C[C@H]2C(=O)N[C@]3(C(=O)NS(=O)(=O)C4(C)CC4)C[C@H]3/C=C\CCCCC[C@H](Nc3nc4ccccc4o3)C(=O)N2C1
pEC50: 8.87
//
structureString: COCCOc1ccc2nc(C)c3c(c2c1)CC[C@]1(C[C@H]2C(=O)N[C@]4(C(=O)NS(=O)(=O)C5(C)CC5)C[C@H]4/C=C\CCCCC[C@H](NC(=O)OCC(C)(C)C)C(=O)N2C1)O3
pEC50: 8.51
//
structureString: CCc1nc2ccc(OC)cc2c2c1O[C@]1(CC2)C[C@H]2C(=O)N[C@]3(C(=O)NS(=O)(=O)C4(C)CC4)C[C@H]3/C=C\CCCCC[C@H](NC(=O)O[C@H](C)C(C)C)C(=O)N2C1
pEC50: 8.66
//
structureString: Cc1ccc2nc(C(F)(F)F)c3c(c2c1)CC[C@]1(C[C@H]2C(=O)N[C@]4(C(=O)NS(=O)(=O)C5(C)CC5)C[C@H]4/C=C\CCCCC[C@H](NC(=O)OC(C)(C)C)C(=O)N2C1)O3
pEC50: 8.58
//
structureString: COCC1(S(=O)(=O)NC(=O)[C@@]23C[C@H]2/C=C\CCCCC[C@H](NC(=O)OC(C)(C)C)C(=O)N2C[C@@]4(CCc5c(c(C(F)F)nc6ccc(OC)cc56)O4)C[C@H]2C(=O)N3)CC1
pEC50: 8.36
//
structureString: CCc1nc2ccc(OC)cc2c2c1O[C@]1(CC2)C[C@H]2C(=O)N[C@]3(C(=O)NS(=O)(=O)C4(C)CC4)C[C@H]3/C=C\CCCCC[C@H](NC(=O)c3cc[nH]n3)C(=O)N2C1
pEC50: 7.31
//
structureString: Cc1ccc2nc(C(F)(F)F)c3c(c2c1)CC[C@]1(C[C@H]2C(=O)N[C@]4(C(=O)NS(=O)(=O)C5(C)CC5)C[C@H]4/C=C\CCCCC[C@H](NC(=O)OCCN4CCCC4)C(=O)N2C1)O3
pEC50: 6.57
//
structureString: CCc1nc2ccc(OC)cc2c2c1O[C@]1(CC2)C[C@H]2C(=O)N[C@]3(C(=O)NS(=O)(=O)C4(C)CC4)C[C@H]3/C=C\CCCCC[C@H](NC(=O)c3ccn(C(F)F)n3)C(=O)N2C1
pEC50: 8.15

* * *

# measuredOn: HCV NS3/4A protease genotype 1b (Hepatitis C virus genotype 1b, UniProt P26663)
# assayProtocol: HCV NS3/4A protease time-resolved fluorescence (TRF) assay, Ki against genotype 1b
# Format: biochemical
# settings: IC50 [gt-1b] (nM), NS3/4A genotype 1b, enzyme 0.2 nM
Sorting guide: entries reporting IC50 beneath 0.01 nM go in the Condition met pile, the rest go in the Condition not met pile.

structureString: COCCC(C)(C)OC(=O)N[C@H]1CCCCC/C=C\[C@@H]2C[C@@]2(C(=O)NS(=O)(=O)C2(C)CC2)NC(=O)[C@@H]2C[C@]3(CCc4c(c(C)nc5ccc(OC(F)(F)F)cc45)O3)CN2C1=O
className: Condition met

structureString: COc1ccc2nc(C(F)F)c3c(c2c1Cl)CC[C@]1(C[C@H]2C(=O)N[C@]4(C(=O)NS(=O)(=O)C5(C)CC5)C[C@H]4/C=C\CCCCC[C@H](NC(=O)OC(C)(C)C)C(=O)N2C1)O3
className: Condition not met

structureString: CC1(OC(=O)N[C@H]2CCCCC/C=C\[C@@H]3C[C@@]3(C(=O)NS(=O)(=O)C3(C)CC3)NC(=O)[C@@H]3C[C@]4(CCc5c(c(C6CC6)nc6ccccc56)O4)CN3C2=O)CCC1
className: Condition not met

structureString: Cc1nc2ccc(C(F)(F)F)cc2c2c1O[C@]1(CC2)C[C@H]2C(=O)N[C@]3(C(=O)NS(=O)(=O)C4(C)CC4)C[C@H]3/C=C\CCCCC[C@H](NC(=O)OCC(C)(C)C)C(=O)N2C1
className: Condition not met

structureString: COc1ccc2nc(C)c3c(c2c1)[C@@H](F)C[C@]1(C[C@H]2C(=O)N[C@]4(C(=O)NS(=O)(=O)C5(C)CC5)C[C@H]4/C=C\CCCCC[C@H](NC(=O)OC(C)(C)C)C(=O)N2C1)O3
className: Condition not met
